Measurement record for Alpha-2B adrenergic receptor (Homo sapiens, UniProt P18089); quantity recorded: AC50.

> print(dat)
                                   compound  observable  readout.value
1  C[C@]12CCC(=O)C=C1[C@@H]1C[C@@H]1[C@H]1[C@@H]3[C@@H]4C[C@@H]4[C@@]4(CCC(=O)O4)[C@@]3(C)CC[C@@H]12        AC50        > 30 µM

GET /values?readout=AC50&system=Alpha-2B adrenergic receptor (Homo sapiens, UniProt P18089)&item= `Nc1nc(Cl)nc2c1ncn2[C@@H]1O[C@H](CO)[C@@H](O)[C@@H]1F` > 30 µM

Query AC50 on Alpha-2B adrenergic receptor (Homo sapiens, UniProt P18089) for `Oc1cc(O)c2c(c1)O[C@H](c1ccc(O)c(O)c1)[C@@H](O)C2` > 10 µM

Request body: readout AC50, system Alpha-2B adrenergic receptor (Homo sapiens, UniProt P18089), query CC(C(=O)O)c1ccc(C(=O)c2ccccc2)s1 (stereo unspecified) . Return the value. > 10 µM

Item: CCCO[C@H]1[C@@H]([C@@H](COCc2ccc(Cl)cc2)OCc2ccc(Cl)cc2)OC(OCC)[C@@H]1O (stereo partly specified) [CLOBENOSIDE] Test system: Alpha-2B adrenergic receptor (Homo sapiens, UniProt P18089) Read-out: AC50 Value: ? > 30 µM

Value wanted: AC50 (Alpha-2B adrenergic receptor (Homo sapiens, UniProt P18089)) of entry `CCCCC[C@H](O)CC[C@@H]1[C@H]2Cc3cccc(OCC(=O)O)c3C[C@H]2C[C@H]1O` > 30 µM

Which AC50 is reported with Alpha-2B adrenergic receptor (Homo sapiens, UniProt P18089) for this entry: `CCC1(CC)C(=O)NC(=O)N(C)C1=O` ? > 10 µM

* * *

- measured-on: Muscarinic acetylcholine receptor M1 (Homo sapiens)
- Sequence (P11229 whole entry): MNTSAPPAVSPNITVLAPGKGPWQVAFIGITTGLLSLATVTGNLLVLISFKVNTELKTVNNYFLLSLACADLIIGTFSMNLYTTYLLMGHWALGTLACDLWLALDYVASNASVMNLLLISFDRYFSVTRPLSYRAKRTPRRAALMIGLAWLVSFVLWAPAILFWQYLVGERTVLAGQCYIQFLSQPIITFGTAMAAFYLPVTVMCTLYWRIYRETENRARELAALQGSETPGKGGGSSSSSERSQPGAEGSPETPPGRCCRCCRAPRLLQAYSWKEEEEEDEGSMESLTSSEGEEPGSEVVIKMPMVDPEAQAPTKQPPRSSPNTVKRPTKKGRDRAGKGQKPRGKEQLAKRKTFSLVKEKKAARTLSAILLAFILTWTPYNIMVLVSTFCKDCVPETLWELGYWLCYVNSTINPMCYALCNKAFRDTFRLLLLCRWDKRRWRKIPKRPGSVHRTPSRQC
- Type: functional
Entries and their AC50 values follow.

compound	readout-value
CO/N=C(\C(=O)N[C@@H]1C(=O)N2C(C(=O)[O-])=C(C[n+]3ccc(N)n3CCO)CS[C@H]12)c1csc(N)n1	> 30 µM

Field request: AC50 | item: `COc1ccc(C(Cl)=C(c2ccc(OC)cc2)c2ccc(OC)cc2)cc1` > 30 µM

Any idea what AC50 was measured for `Oc1cc(O)c2c(c1)O[C@H](c1ccc(O)c(O)c1)[C@@H](O)C2` ? > 10 µM

Dear colleague, I am looking for the recorded AC50 of the following compound: CN(C)CCOC(c1ccc(Cl)cc1)c1ccccn1 (configuration not stated) > 30 µM

Item under review: `CCN(CC)Cc1nccn1-c1ccc([N+](=O)[O-])cc1C(=O)c1ccccc1Cl` . Reported AC50? > 30 µM

If you can, please state the reported AC50 value of CCCCCCOC(=O)NC(=N)c1ccc(NCc2nc3cc(C(=O)N(CCC(=O)OCC)c4ccccn4)ccc3n2C)cc1 [DABIGATRAN ETEXILATE] . > 30 µM

Fill in the blank: the reported AC50 of `CCCCCCCC(=O)CC[C@@H]1[C@@H](C/C=C\CCCC(=O)O)[C@@H](O)C[C@H]1O` is ____. > 30 µM

Request the reported AC50 associated with `O=C(Cc1cccs1)N[C@@H]1C(=O)N2C(C(=O)[O-])=C(C[n+]3ccccc3)CS[C@H]12` > 30 µM

Data request, read-out AC50, for `CC(C)(N)Cc1ccccc1` > 10 µM

Using the record for CN1CC2c3ccccc3Oc3ccc(Cl)cc3C2C1 (configuration not stated) , report its AC50. > 30 µM

Quick one: AC50 for `CCOc1cc2ncc(C#N)c(Nc3ccc(OCc4ccccn4)c(Cl)c3)c2cc1NC(=O)/C=C/CN(C)C` ? > 10 µM

Need AC50 of `CN(C)[C@@H]1C(O)=C(C(=O)NCN2CCCC2)C(=O)[C@@]2(O)C(O)=C3C(=O)c4c(O)cccc4[C@@](C)(O)[C@H]3C[C@@H]12` , thanks. > 10 µM

Give its AC50 value. Item: `CC(=O)Oc1cccc2c1C(=O)c1c(OC(C)=O)cc(C(=O)O)cc1C2=O` 19 µM

Form field: reported AC50 of `CCCCC[C@H](O)CC[C@@H]1[C@H]2Cc3cccc(OCC(=O)O)c3C[C@H]2C[C@H]1O` > 30 µM

Bench note: what AC50 did `CO/N=C(\C(=O)N[C@@H]1C(=O)N2C(C(=O)O)=C(CSc3nc(C)c(CC(=O)O)s3)CS[C@H]12)c1csc(N)n1` show? > 30 µM

Item `CC(=O)NC[C@H]1CN(c2ccc(N3CCOCC3)c(F)c2)C(=O)O1` has what recorded AC50? > 30 µM

Endpoint output: AC50 of `CCOC(=O)Nc1ccc(NCc2ccc(F)cc2)nc1N` . Value? > 30 µM

Quick one: AC50 for CC(C)(Oc1ccc(Cl)cc1)C(=O)OCCOC(=O)c1cccnc1 [ETOFIBRATE] ? > 30 µM

Need AC50, item CC1=C(/C=C/C(C)=C/C=C/C(C)=C/C(=O)Oc2c(C)c(C)c3c(c2C)CCC(C)(CCCC(C)CCCC(C)CCCC(C)C)O3)C(C)(C)CCC1 (configuration not stated) > 30 µM

Which AC50 is listed for COc1cc(N)cn[n+]1-c1ccccc1 [AMEZINIUM METILSULFATE] ? > 30 µM

* * *

Catalogue of AC50 readings, one per entry.
- measured-on: Voltage-dependent L-type calcium channel subunit alpha-1C (Rattus norvegicus)
- Sequence (P22002 whole entry): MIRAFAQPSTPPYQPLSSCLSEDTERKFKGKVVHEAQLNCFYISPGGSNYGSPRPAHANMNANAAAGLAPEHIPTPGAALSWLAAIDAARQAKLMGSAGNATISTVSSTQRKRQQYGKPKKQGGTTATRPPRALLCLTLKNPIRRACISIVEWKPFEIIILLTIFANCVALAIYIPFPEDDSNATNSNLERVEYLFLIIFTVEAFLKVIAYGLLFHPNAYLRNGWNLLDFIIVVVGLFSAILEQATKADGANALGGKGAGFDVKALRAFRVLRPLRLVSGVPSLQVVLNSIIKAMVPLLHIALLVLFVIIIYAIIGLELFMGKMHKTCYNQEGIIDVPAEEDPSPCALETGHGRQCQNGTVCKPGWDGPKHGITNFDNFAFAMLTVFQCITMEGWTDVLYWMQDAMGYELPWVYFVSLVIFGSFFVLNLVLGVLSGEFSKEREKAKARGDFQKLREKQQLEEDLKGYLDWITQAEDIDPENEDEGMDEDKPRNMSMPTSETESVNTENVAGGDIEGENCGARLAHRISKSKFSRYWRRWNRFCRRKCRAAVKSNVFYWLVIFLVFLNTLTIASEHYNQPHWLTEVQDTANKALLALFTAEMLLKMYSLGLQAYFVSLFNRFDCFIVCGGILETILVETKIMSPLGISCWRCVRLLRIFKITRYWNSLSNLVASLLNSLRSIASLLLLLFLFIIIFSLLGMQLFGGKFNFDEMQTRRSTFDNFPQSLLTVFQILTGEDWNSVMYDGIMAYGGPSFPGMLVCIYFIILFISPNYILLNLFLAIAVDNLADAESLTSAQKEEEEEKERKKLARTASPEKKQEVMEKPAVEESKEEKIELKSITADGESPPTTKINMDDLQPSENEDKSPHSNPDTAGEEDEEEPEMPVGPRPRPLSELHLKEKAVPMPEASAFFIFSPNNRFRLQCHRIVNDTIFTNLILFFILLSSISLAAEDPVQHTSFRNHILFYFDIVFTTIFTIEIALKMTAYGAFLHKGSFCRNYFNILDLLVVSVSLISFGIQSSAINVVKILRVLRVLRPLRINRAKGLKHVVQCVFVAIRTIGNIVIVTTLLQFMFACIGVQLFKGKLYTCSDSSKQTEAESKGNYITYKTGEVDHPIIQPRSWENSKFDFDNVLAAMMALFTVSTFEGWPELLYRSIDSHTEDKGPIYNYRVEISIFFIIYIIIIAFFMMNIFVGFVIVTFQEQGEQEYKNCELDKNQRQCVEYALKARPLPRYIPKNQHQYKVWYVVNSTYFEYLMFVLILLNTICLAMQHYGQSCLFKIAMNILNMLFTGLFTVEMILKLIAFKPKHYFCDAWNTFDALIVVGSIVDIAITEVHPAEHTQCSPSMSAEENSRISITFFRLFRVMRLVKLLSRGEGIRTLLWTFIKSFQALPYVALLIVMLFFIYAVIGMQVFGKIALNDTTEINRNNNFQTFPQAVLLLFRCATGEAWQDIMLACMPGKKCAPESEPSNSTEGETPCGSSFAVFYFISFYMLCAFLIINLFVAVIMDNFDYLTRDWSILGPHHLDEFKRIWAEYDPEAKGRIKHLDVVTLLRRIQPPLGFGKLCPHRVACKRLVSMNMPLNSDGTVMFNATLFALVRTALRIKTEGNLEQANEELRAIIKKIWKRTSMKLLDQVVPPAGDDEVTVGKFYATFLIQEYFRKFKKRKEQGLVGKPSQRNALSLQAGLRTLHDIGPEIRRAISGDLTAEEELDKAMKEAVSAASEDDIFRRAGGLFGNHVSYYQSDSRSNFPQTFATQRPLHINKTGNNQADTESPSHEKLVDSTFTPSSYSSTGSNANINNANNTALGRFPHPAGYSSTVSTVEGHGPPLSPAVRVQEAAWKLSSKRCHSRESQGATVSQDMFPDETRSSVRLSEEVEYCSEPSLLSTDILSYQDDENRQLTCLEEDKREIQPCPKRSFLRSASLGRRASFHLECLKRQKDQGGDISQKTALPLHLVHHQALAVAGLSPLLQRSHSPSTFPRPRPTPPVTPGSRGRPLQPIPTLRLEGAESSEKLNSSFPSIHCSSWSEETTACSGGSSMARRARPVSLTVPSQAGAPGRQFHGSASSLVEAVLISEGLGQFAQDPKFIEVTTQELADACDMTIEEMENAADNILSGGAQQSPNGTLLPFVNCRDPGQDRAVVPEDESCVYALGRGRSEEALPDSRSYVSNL
- Format: functional

Answered cases to consult:
> print(dat)
                                   compound                               measured.on  observable  readout.value
1  COc1cc(N)cn[n+]1-c1ccccc1 [AMEZINIUM METILSULFATE]  Voltage-dependent L-type calcium channel subunit alpha-1C (Rattus norvegicus)        AC50        > 30 µM
2  COc1ccc2c3c1O[C@H]1C(=O)CC[C@H]4[C@@H](C2)N(C)CC[C@]314 [HYDROCODONE]  Voltage-dependent L-type calcium channel subunit alpha-1C (Rattus norvegicus)        AC50        > 10 µM
3  CC1=C(CC(=O)O)c2cc(F)ccc2/C1=C\c1ccc([S+](C)[O-])cc1 (centres undefined)  Voltage-dependent L-type calcium channel subunit alpha-1C (Rattus norvegicus)        AC50        > 10 µM
4  CN(C)CCCC1(c2ccc(F)cc2)OCc2cc(C#N)ccc21 (centres undefined)  Voltage-dependent L-type calcium channel subunit alpha-1C (Rattus norvegicus)        AC50        > 10 µM
5  OCC(CO)N[C@H]1C[C@](O)(CO)[C@@H](O)[C@H](O)[C@H]1O  Voltage-dependent L-type calcium channel subunit alpha-1C (Rattus norvegicus)        AC50        > 30 µM
6  O=C(c1ccccc1)c1ccc2n1CCC2C(=O)O (centres undefined)  Voltage-dependent L-type calcium channel subunit alpha-1C (Rattus norvegicus)        AC50        > 30 µM

Record request: AC50 value, item CC(=O)SCC(Cc1ccccc1)C(=O)NCC(=O)OCc1ccccc1 (centres undefined) 28 µM

Look at this compound and give its reported AC50. `CCC1(c2ccccc2)C(=O)NCNC1=O` > 10 µM

Param item = Cc1cccc(Nc2ccncc2S(=O)(=O)NC(=O)NC(C)C)c1 [TORSEMIDE] ; retrieve measured AC50. > 10 µM

* * *

# AC50 per record follows
- measured-on: Type-1 angiotensin II receptor (Homo sapiens, UniProt P30556)
- Sequence (P30556 whole entry): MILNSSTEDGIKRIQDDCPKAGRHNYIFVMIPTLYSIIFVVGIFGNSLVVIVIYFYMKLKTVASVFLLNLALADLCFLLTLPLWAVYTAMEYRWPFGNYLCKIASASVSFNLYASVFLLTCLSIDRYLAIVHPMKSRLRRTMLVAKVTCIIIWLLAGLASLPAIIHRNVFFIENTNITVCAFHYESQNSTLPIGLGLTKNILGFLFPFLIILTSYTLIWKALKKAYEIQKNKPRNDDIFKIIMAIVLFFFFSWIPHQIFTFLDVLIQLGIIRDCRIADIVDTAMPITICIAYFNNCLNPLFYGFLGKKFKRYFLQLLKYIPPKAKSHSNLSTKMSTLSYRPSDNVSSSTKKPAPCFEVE

// solved cases for AC50 follow
> print(dat)
                                   molecule  readout.value
1        NS(=O)(=O)c1ccc(N2CCCCS2(=O)=O)cc1        > 30 µM
2  C[C@]12CCC(=O)C=C1CC[C@H]1[C@@H]3CC[C@](O)(C(=O)CO)[C@@]3(C)C[C@H](O)[C@@]12F        > 30 µM
3  CN(C)CCOC(=O)C(c1ccccc1)C1(O)CCCC1 (stereo not drawn) [CYCLOPENTOLATE]        > 10 µM
4  CC(=O)OCC1=C(C(=O)O)N2C(=O)[C@@H](NC(=O)CSc3ccncc3)[C@H]2SC1        > 10 µM

What measured AC50 is associated with `O=C(O)c1nn(Cc2ccc(Cl)cc2Cl)c2ccccc12` on Type-1 angiotensin II receptor (Homo sapiens, UniProt P30556)? > 30 µM

Identify the measured AC50 of `CN(C)CCC=C1c2ccccc2CCc2ccccc21` for Type-1 angiotensin II receptor (Homo sapiens, UniProt P30556). 1.4 µM

// map CC(=O)N1CCN(c2ccc(OCC3COC(Cn4ccnc4)(c4ccc(Cl)cc4Cl)O3)cc2)CC1 (stereo not drawn) to recorded AC50 (system: Type-1 angiotensin II receptor (Homo sapiens, UniProt P30556)) > 10 µM

Form field: AC50 recorded for `CCOc1cc2ncc(C#N)c(Nc3ccc(OCc4ccccn4)c(Cl)c3)c2cc1NC(=O)/C=C/CN(C)C` with Type-1 angiotensin II receptor (Homo sapiens, UniProt P30556) (enter value) > 30 µM
